test system: PC-3 PIP/flu tumor-bearing mice; test: Biodistribution studies in PC-3 PIP/flu tumor-bearing mice; settings: 96 h p.i.
# Liver per entry

- COMPOUND: "O=C(O)CCC(NC(=O)NC(CCCCNC(=O)C(Cc1ccc2ccccc2c1)NC(=O)C1CCC(CNC(=O)C(CCCCNC(=O)CN2CCN(CC(=O)O)CCN(CC(=O)O)CCN(CC(=O)O)CC2)NC(=O)CC(NC(=O)CC(NC(=O)CCCc2ccc(I)cc2)C(=O)O)C(=O)O)CC1)C(=O)O)C(=O)O (stereo not shown) [^177Lu-PSMA-ALB-05, metal not drawn]"
  U: "% IA/g"
  Liver: 0.74
- COMPOUND: "O=C(O)CCC(NC(=O)NC(CCCCNC(=O)C(Cc1ccc2ccccc2c1)NC(=O)C1CCC(CNC(=O)C(CCCCNC(=O)CN2CCN(CC(=O)O)CCN(CC(=O)O)CCN(CC(=O)O)CC2)NC(=O)CCCCCCC(=O)NC(CCCCNC(=O)CCCc2ccc(I)cc2)C(=O)O)CC1)C(=O)O)C(=O)O (stereo not shown) [^177Lu-PSMA-ALB-04, metal not drawn]"
  U: "% IA/g"
  Liver: 4.67
- COMPOUND: "O=C(O)CCC(NC(=O)NC(CCCCNC(=O)C(Cc1ccc2ccccc2c1)NC(=O)C1CCC(n2cc(CC(NC(=O)CN3CCN(CC(=O)O)CCN(CC(=O)O)CCN(CC(=O)O)CC3)C(=O)NC(CCCCNC(=O)CCCc3ccc(I)cc3)C(=O)O)nn2)CC1)C(=O)O)C(=O)O (stereo not shown) [^177Lu-PSMA-ALB-01, metal not drawn]"
  U: "% IA/g"
  Liver: 1.88
- COMPOUND: "O=C(O)CCC(NC(=O)NC(CCCCNC(=O)C(Cc1ccc2ccccc2c1)NC(=O)C1CCC(CNC(=O)C(CCCCNC(=O)CCCc2ccc(I)cc2)NC(=O)CN2CCN(CC(=O)O)CCN(CC(=O)O)CCN(CC(=O)O)CC2)CC1)C(=O)O)C(=O)O (stereo not shown) [^177Lu-PSMA-ALB-03, metal not drawn]"
  U: "% IA/g"
  Liver: 1.78

---

# Spleen per entry
test system: PC-3 PIP/flu tumor-bearing mice; test: Biodistribution studies in PC-3 PIP/flu tumor-bearing mice; conditions: 48 h p.i.
QUANTITY: Spleen (% IA/g)

- COMPOUND: "O=C(O)CCC(NC(=O)NC(CCCCNC(=O)C(Cc1ccc2ccccc2c1)NC(=O)C1CCC(CNC(=O)C(CCCCNC(=O)CN2CCN(CC(=O)O)CCN(CC(=O)O)CCN(CC(=O)O)CC2)NC(=O)CC(NC(=O)CC(NC(=O)CCCc2ccc(I)cc2)C(=O)O)C(=O)O)CC1)C(=O)O)C(=O)O (stereo not shown) [^177Lu-PSMA-ALB-05, metal not drawn]"
  QUANTITY: "Spleen"
  MEASUREMENT: 0.71
- COMPOUND: "O=C(O)CCC(NC(=O)NC(CCCCNC(=O)C(Cc1ccc2ccccc2c1)NC(=O)C1CCC(CNC(=O)C(CCCCNC(=O)CCCc2ccc(I)cc2)NC(=O)CN2CCN(CC(=O)O)CCN(CC(=O)O)CCN(CC(=O)O)CC2)CC1)C(=O)O)C(=O)O (stereo not shown) [^177Lu-PSMA-ALB-03, metal not drawn]"
  QUANTITY: "Spleen"
  MEASUREMENT: 3.79
- COMPOUND: "O=C(O)CCC(NC(=O)NC(CCCCNC(=O)C(Cc1ccc2ccccc2c1)NC(=O)C1CCC(n2cc(CC(NC(=O)CN3CCN(CC(=O)O)CCN(CC(=O)O)CCN(CC(=O)O)CC3)C(=O)NC(CCCCNC(=O)CCCc3ccc(I)cc3)C(=O)O)nn2)CC1)C(=O)O)C(=O)O (stereo not shown) [^177Lu-PSMA-ALB-01, metal not drawn]"
  QUANTITY: "Spleen"
  MEASUREMENT: 4.62
- COMPOUND: "O=C(O)CCC(NC(=O)NC(CCCCNC(=O)C(Cc1ccc2ccccc2c1)NC(=O)C1CCC(CNC(=O)C(CCCCNC(=O)CN2CCN(CC(=O)O)CCN(CC(=O)O)CCN(CC(=O)O)CC2)NC(=O)CCCCCCC(=O)NC(CCCCNC(=O)CCCc2ccc(I)cc2)C(=O)O)CC1)C(=O)O)C(=O)O (stereo not shown) [^177Lu-PSMA-ALB-04, metal not drawn]"
  QUANTITY: "Spleen"
  MEASUREMENT: 14.0
